- Test system: SK-MEL-2 melanoma
- PROTOCOL DESCRIPTION: NCI tumour cell line growth inhibition, 48 h; in the data active means GI50 below about 0.43 µM; inactive means the rest
Outcome codes: active, inactive

molecule=O=C1NC(=N[C@@H](CO)c2ccccc2)S/C1=C\c1ccc2ncccc2c1 cat=inactive
molecule=COc1ccc(C(=O)c2cc(OC)c(OC)c(OC)c2OC)cc1O cat=inactive
molecule=CC1(C)N=C(N)N=C(N)N1c1ccc(CCC(=O)Nc2ccc(S(=O)(=O)F)cc2)cc1 cat=inactive
molecule=CCN=c1sc2c(n1NC(=O)c1cc3ccc1CCc1ccc(cc1)CC3)C(=O)c1ccccc1C2=O cat=inactive
molecule="CN(C)CCCC1(c2ccc(F)cc2)OCc2cc(-c3cccc4[nH]ccc34)ccc21 (stereo unspecified)" cat=inactive
molecule=CCn1cc(C(=O)O)c(=O)c2cc(F)c(N3CCN(S(=O)(=O)c4cccc5ccccc45)CC3)cc21 cat=inactive
molecule=Cc1c2ccnc(C(N)=O)c2c(C)c2c1[nH]c1ccccc12 cat=inactive
molecule="COC(=O)OC1C(O[C@H]2C[C@H]3[C@@H]4CC=C5C[C@@H](O)CC[C@]5(C)[C@H]4CC[C@]3(C)[C@H]2[C@H](C)C(=O)CCC(C)C)OCC(O)C1OC1OCC(O)C(O)C1OC(=O)c1ccc(OC)cc1 (stereo partly specified)" cat=active
molecule=CNCc1cccc2c1OCCOCCOCCN(C)S(=O)(=O)c1ccc(cc1)-c1cnc(N)c(n1)C(=O)N2 cat=inactive
molecule=Cc1ccc(O)cc1Nc1ccnc2ccc(S(C)(=O)=O)cc12 cat=inactive
molecule=C[C@]12CC[C@H]3[C@@H](CCC4=CC(=O)CC[C@@]43C)[C@@H]1CC[C@@H]2c1csc(N)n1 cat=inactive
molecule=O=C1C=C[C@H](O)[C@@]2(CO)O[C@@H]12 cat=inactive
molecule=Cn1nccc1Nc1nccc(-c2ccn([C@H](CO)c3ccc(Cl)c(F)c3)c(=O)c2)n1 cat=active
molecule=N#CC1(c2ccc(NC(=O)c3cccnc3NCc3ccncc3)cc2)CCCC1 cat=inactive
molecule=CNC(=O)c1ncccc1Nc1nc(Nc2cc3c(cc2OC)CCCN3C(=O)CN(C)C)nc2[nH]ccc12 cat=inactive
molecule=COc1ccc2c(N)ncc(C#Cc3cc(C(=O)Nc4ccc(CN5CCN(C)CC5)c(C(F)(F)F)c4)cnc3C)c2c1 cat=inactive

----------
- Tested on: SK-MEL-5 melanoma
- PROTOCOL DESCRIPTION: NCI tumour cell line growth inhibition, 48 h
OBSERVED PROPERTY: TGI (µM)

compound=CCCCI(O)OS(=O)(=O)c1ccc(C)cc1 unit_text=µM relation_operator=> endpoint_value=100
compound=COCOc1ccc(C(=O)Oc2cccc3c2OC(C)(C)O3)c(OCOC)c1 unit_text=µM relation_operator=> endpoint_value=100
compound=COc1ccc(OC)c(NCC(=O)n2nc(/C=C\c3ccc(O)c(OC)c3)cc2/C=C\c2ccc(O)c(OC)c2)c1 unit_text=µM relation_operator== endpoint_value=4.91
compound=O=C1c2cccc(Oc3ccccc3)c2C(=O)c2cccc(Oc3ccccc3)c21 unit_text=µM relation_operator=> endpoint_value=100
compound=COc1ccc2ccc3oc(=O)c(C)cc3c2c1 unit_text=µM relation_operator=> endpoint_value=100
compound=CC(=O)NNc1nc(C)c(C(=O)NNC(=O)C(=O)Nc2ccc([N+](=O)[O-])cc2[N+](=O)[O-])s1 unit_text=µM relation_operator=> endpoint_value=100
compound=c1ccc2c(c1)SCCCS2 unit_text=µM relation_operator=> endpoint_value=100
compound=CN(O)C(=O)/C=C/c1ccc(OCc2cccc(Cl)c2)cc1 unit_text=µM relation_operator== endpoint_value=78.2
compound=Cc1ccc(-c2cc(-c3ccco3)c(C#N)c(=S)[nH]2)cc1 unit_text=µM relation_operator== endpoint_value=61.9
compound=N#CC1(c2ccc(NC(=O)c3cccnc3NCc3ccncc3)cc2)CCCC1 unit_text=µM relation_operator== endpoint_value=18
compound=CN(C)c1nc(Oc2nc(N(C)C)nc(N(C)C)n2)nc(N(C)C)n1 unit_text=µM relation_operator=> endpoint_value=100
compound="C[C@@H]1CC[C@@]2(C)C(C(=O)O)=CCCC2[C@@]1(C)CC(=O)c1ccoc1 (stereo not given in full)" unit_text=µM relation_operator=> endpoint_value=25
compound=Cc1c(N2CCOCC2)nc2ccc(Cl)cc2c1-c1ccccc1 unit_text=µM relation_operator== endpoint_value=65.7
compound="CC1=CC2C3(C)C(C)(C(C)=CP3(=O)c3c(C(C)C)cc(C(C)C)cc3C(C)C)C1P2(=O)c1c(C(C)C)cc(C(C)C)cc1C(C)C (stereo not given)" unit_text=µM relation_operator== endpoint_value=3
compound=COc1cc2ccc3c4cc(OC)c(OC)cc4c[n+](C)c3c2cc1O unit_text=µM relation_operator=> endpoint_value=100
compound=OCc1cc2c(cn1)[nH]c1ccc(NCc3ccccc3)cc12 unit_text=µM relation_operator== endpoint_value=25.6
compound="COC(=O)CNC(=O)C(CSC(=O)OCC1c2ccccc2-c2ccccc21)NC(=O)CCC(NC(=O)OCC1c2ccccc2-c2ccccc21)C(=O)OC (stereo not given)" unit_text=µM relation_operator=> endpoint_value=100
compound="Nc1ncnc2c1N=C(c1ccc3c(c1)OCO3)CC(c1ccc(Cl)cc1)N2 (stereo not given)" unit_text=µM relation_operator=> endpoint_value=100
compound="C[C@]12CCC3[C@@H](CCC45OC4C(=O)CC[C@]35C)C1Cc1cnn(-c3ccc(F)cc3)c1N2 (stereo not given in full)" unit_text=µM relation_operator=> endpoint_value=100
compound=OC1(c2ccc(Cl)c(C(F)(F)F)c2)CCN(CCCC(c2ccc(F)cc2)c2ccc(F)cc2)CC1 unit_text=µM relation_operator== endpoint_value=1.47
